Values were extracted from the supplement of paper PMC9233669.

Would you mind telling me the reported self-aminoacylation of each entry?
Tested on: biotinyl-Trp-oxazolone
Assay: self-aminoacylation, catalytic enhancement (BWO) (fold over background); higher = more active; k-Seq, kA / k0A0; sequences stand for … in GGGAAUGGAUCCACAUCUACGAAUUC…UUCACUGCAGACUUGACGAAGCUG
Variants at the floor of the assay were thinned out.
Reply with just the number.

What self-aminoacylation value was documented for this sequence, CCAUACUUCAAGCAAUCGGUC [Fam1B.1 aminoacylation ribozyme variant] ?
10.1

Another sequence to check: CUACUUCCAACAAUCGGUCAG [Fam1A.1 aminoacylation ribozyme variant]
0.518

Another sequence to check: CCACGCUUUAAGCAAUCGGUC [Fam1B.1 aminoacylation ribozyme variant]
0.998

Another sequence to check: AUUCACCUAGCUCAUCGGGCG [Fam2.2 aminoacylation ribozyme variant]
1.8

Another sequence to check: AAGUUUGCUAAUAGUAGCAAU [Fam3.1 aminoacylation ribozyme variant]
1.78

Another sequence to check: CUACUUCUAUCAAUCGGUCUG [Fam1A.1 aminoacylation ribozyme variant]
0.493

Another sequence to check: AAGUUGGCUAAUAUUCGCAAG [Fam3.1 aminoacylation ribozyme variant]
3.02

Another sequence to check: CCACACUUCGAGCAAUAGGUC [Fam1B.1 aminoacylation ribozyme variant]
0.361
